The origin of these recorded values is patent US11351221B2.

Molecular target: cIAP-1 (Homo sapiens, UniProt Q13490)
Construct: expressed in transfected cells; host or cells: A375 (A375Gc1)
Sequence (Q13490 whole entry, species assumed): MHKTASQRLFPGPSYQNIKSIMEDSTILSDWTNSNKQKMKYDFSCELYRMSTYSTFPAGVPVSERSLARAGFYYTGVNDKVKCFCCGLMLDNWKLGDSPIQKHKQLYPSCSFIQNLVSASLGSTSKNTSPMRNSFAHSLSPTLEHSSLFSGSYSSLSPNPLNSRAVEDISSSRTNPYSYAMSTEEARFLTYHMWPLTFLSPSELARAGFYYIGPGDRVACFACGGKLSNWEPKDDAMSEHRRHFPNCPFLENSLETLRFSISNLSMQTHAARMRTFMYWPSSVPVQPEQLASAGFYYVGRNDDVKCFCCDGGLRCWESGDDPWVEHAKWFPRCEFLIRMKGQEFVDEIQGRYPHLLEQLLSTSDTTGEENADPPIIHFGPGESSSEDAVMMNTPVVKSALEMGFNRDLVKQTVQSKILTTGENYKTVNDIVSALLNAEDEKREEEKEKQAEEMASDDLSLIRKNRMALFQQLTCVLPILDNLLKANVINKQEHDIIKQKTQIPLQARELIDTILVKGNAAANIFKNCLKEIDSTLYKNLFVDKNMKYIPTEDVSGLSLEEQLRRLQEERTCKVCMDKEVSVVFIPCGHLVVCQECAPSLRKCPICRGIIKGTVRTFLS
Test: cIAP degradation assay (GFP-cIAP-1)
Assay type: cell-based
Conditions: ratio of GFP-cIAP-2 to GFP-cIAP-1 degradation IC50
Reported Endpoint: IC50 Ratio cIAP-2/cIAP-1
// no unit string in output, number only

Q: Sample `CN[C@@H](C)C(=O)N[C@H](C(=O)N1C[C@@H](O)C[C@H]1Cc1c(-c2[nH]c3cc(F)ccc3c2C[C@@H]2C[C@H](O)CN2C(=O)[C@@H](NC(=O)[C@H](C)NC)[C@H](C)O)[nH]c2cc(F)ccc12)[C@H](C)O` — what was its IC50 Ratio cIAP-2/cIAP-1?
Result: 1.3

Q: Similarly, `CN[C@@H](C)C(=O)N[C@H](C(=O)N1C[C@@H](O)C[C@H]1Cc1c(-c2[nH]c3cc(F)ccc3c2C[C@@H]2C[C@H](O)CN2C(=O)[C@@H](NC(=O)[C@H](C)NC)[C@@H](C)OC)[nH]c2cc(F)ccc12)[C@@H](C)OC` ?
Result: 3.7

Q: Can you check `CN[C@@H](C)C(=O)N[C@H](C(=O)N1C[C@@H](O)C[C@H]1Cc1c(-c2[nH]c3cc(F)ccc3c2C[C@@H]2C[C@H](O)CN2C(=O)[C@@H](NC(=O)[C@H](C)NC)C(C)C)[nH]c2cc(F)ccc12)C(C)C` next?
Result: 1.8

Q: Query `CN[C@@H](C)C(=O)N[C@H](C(=O)N1C[C@@H](O)C[C@H]1Cc1c(-c2[nH]c3cc(F)ccc3c2C[C@@H]2C[C@H](O)CN2C(=O)[C@@H](NC(=O)[C@H](C)NC)[C@@H](C)O)[nH]c2cc(F)ccc12)[C@@H](C)O` next
Result: 2.1
